Entries and their measured IC50 follow.
- SYSTEM UNDER TEST: WT HIV-1 protease (Human immunodeficiency virus type 1 group M subtype B (isolate HXB2) (HIV-1))
- TEST METHOD NOTES: Assay for inhibition of microbial expressed HIV protease (Procedure A, peptide substrate, HPLC fluorescence detection)
- TEST SETTINGS: WT HIV-1 protease 10 pM, substrate 400 micromolar, pH 5.5, 30 min preincubation, 1 hour at 30° C.; read-out: Enzyme inhibition IC50

>  <MOLECULE>
COC(=O)N[C@H](C(=O)N[C@H](c1ccc([C@@H](CO)N(CCC(C)(C)C)S(=O)(=O)c2ccc(N)cc2)s1)C(F)(F)F)C(c1ccccc1)c1ccccc1

>  <IC50>
0.196 nM

$$$$
>  <MOLECULE>
COC(=O)N[C@H](C(=O)N[C@H](c1ccc([C@@H](CO)N(CCC(C)C)S(=O)(=O)c2ccc(N)cc2)s1)C(F)(F)F)C(c1ccccc1)c1ccccc1

>  <IC50>
0.3 nM

$$$$
>  <MOLECULE>
COC(=O)N[C@H](C(=O)N[C@H](c1ccc([C@@H](CO)N(CC(C)C)S(=O)(=O)c2ccc(N)cc2)s1)C(F)(F)F)C(c1ccccc1)c1ccccc1

>  <IC50>
2.01 nM

$$$$
>  <MOLECULE>
COC(=O)N[C@H](C(=O)N[C@H](c1ccc([C@@H](CO)N(CCC(C)(C)C)S(=O)(=O)c2ccc(N)cc2Cl)s1)C(F)(F)F)C(c1ccccc1)c1ccccc1

>  <IC50>
0.47 nM

$$$$
>  <MOLECULE>
CC(C)CN(C(CO)c1ccc(CNC(=O)C(NC(=O)c2ccccc2)C(c2ccccc2)c2cnc[nH]2)s1)S(=O)(=O)c1ccc2ncsc2c1 (centres unmarked)

>  <IC50>
216 nM

$$$$
>  <MOLECULE>
COC(=O)N[C@H](C(=O)N[C@H](c1ccc([C@@H](CO)N(CCC(C)(C)C)S(=O)(=O)c2ccn3ccnc3c2)s1)C(F)(F)F)C(c1ccccc1)c1ccccc1

>  <IC50>
17.5 nM

$$$$
>  <MOLECULE>
COC(=O)N[C@H](C(=O)NCc1ccc([C@@H](CO)N(CC2CC(F)(F)C2)S(=O)(=O)c2ccc3c(c2)CCC3O)s1)C(c1ccccc1)c1ccccc1 (some centres unmarked)

>  <IC50>
5.65 nM

$$$$
>  <MOLECULE>
COC(=O)N[C@H](C(=O)N[C@H](c1ccc([C@@H](CO)N(C(C)C)S(=O)(=O)c2ccc3cc[nH]c3c2)s1)C(F)(F)F)C(c1ccccc1)c1ccccc1

>  <IC50>
12.5 nM

$$$$
>  <MOLECULE>
COC(=O)N[C@H](C(=O)NCc1ccc(C(CO)N(Cc2cnon2)S(=O)(=O)c2ccc(N)cc2)s1)C(c1ccccc1)c1ccccc1 (some centres unmarked)

>  <IC50>
6.97 nM

$$$$
>  <MOLECULE>
COC(=O)N[C@H](C(=O)NCc1ccc([C@@H](CO)N(CC2CC(F)(F)C2)S(=O)(=O)c2ccc(N)cc2)s1)C(c1ccccc1)c1ccccc1

>  <IC50>
1.61 nM

$$$$
>  <MOLECULE>
COC(=O)N[C@H](C(=O)N[C@H](c1ccc([C@@H](CO)N(CCC(C)(C)C)S(=O)(=O)c2ccc(-n3ccnn3)cc2)s1)C(F)(F)F)C(c1ccccc1)c1ccccc1

>  <IC50>
25.9 nM

$$$$
